Form field: amyloid nucleation score (one value per entry).
- EXPERIMENTAL_PROTOCOL: amyloid nucleation score (Sup35N fusion, yeast selection) (log enrichment); library NNK2; higher = more nucleation; inactive = no reads after selection;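 also: zero at mode of non-aggregating sequences after 7 days selection at 30°C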
MEASURE_NAME: amyloid nucleation score

1) YRGLTSLYLFNQV; -0.08
2) YCGFQYLRWGVTVVNS; 0.386
3) AILSEGETGFVSDYRQVSEP; -0.004
4) LNWTTGFSDSAPVICPDTMH; -1.56
5) YHIWRYHATSSHTFARFSSV; 1.62
6) GFVQDAEYRISRSCLRCILM; 4.03
7) NIVQEHTTCTEVRGVSALAR; 0.436
8) FIDPGHFTLDLGCSPPESEV; 4.5
9) CNSCSP; 0.811
10) DDASKKLYS; 0.967
11) LFNAVGLATV; 0.33
12) KHSRMYLR; 1.49
13) STVMWLRASLRIQNYTRGDT; 4.54
14) LSYLML; -1.03
15) EFLYKLRLSLSMGCGHEELG; 4.72
16) FGNALA; -1.15
17) ITADNVKSNHKAVVMNDIHG; -0.133
18) KCVGYW; 0.811
19) INGNFVIKKCYRGYVS; -0.557
20) YKDHGCNDSWK; -0.572
21) REKVPYT; -0.428
22) SLSRGLC; 0.404
23) GMRSCYWCEPSYCWASA; 2.9
24) WDSDRSYVLSLFADVPLAKC; 0.035
25) AMFVLVGFEFY; 1.47
26) HVCCLKLVRCAGGGFVVKHV; 0.779
27) KCPRVPNLVS; 0.407
28) HLLHGPFMSLGG; -0.973
29) WYCRVSMRNLYIFGSIRSAY; 5.34
30) TVYSGILKSY; -0.574
31) MVFFLLQLATAAVFSF; -0.073
32) LSCNMFDPVGQWCCGKKVGA; 1.07
33) TSFHYCCSR; 6.15
